Assay: NCI Yeast Anticancer Drug Screen. Data for the wt2 strain (AID 169);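 note: 0% = growth of vehicle-treated yeast cultures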
Details: S. cerevisiae wt2 strain growth inhibition; at 1.2 µM; stronger effect = higher value
This is part of a sample that, as a whole, favours compounds with a hit. Of some 79,000 tested, about 15% had one in any assay.
recorded-metric: growth inhibition (%)
Your answer is read as %, so omit the unit and give the number.

Query block: Value lookup for growth inhibition; key = CCOP(=O)(OCC)/C(C#N)=C\c1cccc2ccccc12
Result block: -6

Query block: Value lookup for growth inhibition; key = COc1ccc2c(c1)CCCC(Br)C2=O (stereo not given)
Result block: -41

Query block: Value lookup for growth inhibition; key = CCOC(=O)/C(=C\c1cccc(C)c1)C(C)=O
Result block: 20

Query block: Value lookup for growth inhibition; key = O=C(NCCNCCNC(=O)c1cc(-c2ccccc2)nc2ccccc12)c1cc(-c2ccccc2)nc2ccccc12
Result block: -2

Continuing:
Query block: Value lookup for growth inhibition; key = CCN(CC)C(=S)SC(=S)N(CC)CC
Result block: -21

Query block: Value lookup for growth inhibition; key = CCN(CC)CCCNc1ccc([N+](=O)[O-])c2nc3ccc(OC)cc3c(NCCCN(CC)CC)c12
Result block: -2

Query block: Value lookup for growth inhibition; key = CCC(/C=C/c1ccccc1)=N\Nc1ccc(Cl)c(Cl)c1
Result block: -2

Query block: Value lookup for growth inhibition; key = CCC(C)(C)c1ccc(Oc2ccccc2)c(N)c1
Result block: -17

Query block: Value lookup for growth inhibition; key = O=C1C=CC(=Nc2cccc3c2-c2ccccc2C3=O)O1
Result block: -3

Query block: Value lookup for growth inhibition; key = COc1ccc(C(=O)/C=C\c2ccc(Cl)c(Cl)c2)cc1
Result block: 15

Query block: Value lookup for growth inhibition; key = O=C(c1cc(=O)c2ccc(O)cc2o1)c1ccc(Cl)cc1Cl
Result block: -4

Query block: Value lookup for growth inhibition; key = NCCCSc1ccccc1
Result block: -2

Query block: Value lookup for growth inhibition; key = Nc1ccc(/C=C/c2ccc3cccnc3c2)cc1
Result block: 1

====

Test: NCI Yeast Anticancer Drug Screen. Data for the sgs1 mgt1 strain (AID 161);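 note: 0% = growth of cultures given vehicle only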
Settings: S. cerevisiae sgs1 mgt1 strain, at 5.0 µM (retest, dose inferred, filed as 0.5), stronger effect = higher value
Compounds without any hit were thinned out: in the full panel of roughly 79,000, 15% have a hit.
The reader will find reported growth inhibition values listed item by item below.
Your answer is read as %, so omit the unit and give the number.

Query block: Value lookup for growth inhibition; key = CC1=CC(=O)C=CC1=Nc1cc(Cl)c(O)c(Cl)c1
Result block: -4

Query block: Value lookup for growth inhibition; key = O=S(=O)(NNc1ccccc1)c1ccccc1
Result block: 0

Continuing:
Query block: Value lookup for growth inhibition; key = CC1(C)OC(=O)C(=Cc2ccc([N+](=O)[O-])s2)C(=O)O1
Result block: 56

====

The reader will find reported growth inhibition values listed item by item below.
Test: NCI Yeast Anticancer Drug Screen. Data for the rad18 strain (AID 177)
Details: S. cerevisiae rad18 mutant growth inhibition; at 1.2 µM; stronger effect = higher value
About 79,000 compounds went through this panel and 15% of them were active in at least one assay; those are over-represented in the sample as a whole.
Your answer is read as %, so omit the unit and give the number.

Known results for compounds:
Query block: Value lookup for growth inhibition; key = O=C1c2ccccc2-c2cc3ccccc3c(=O)n21
Result block: -22

Query block: Value lookup for growth inhibition; key = CC(C)CCC[C@@H](C)[C@H]1CC[C@H]2[C@@H]3CC[C@H]4C[C@H](N)CC[C@]4(C)[C@H]3CC[C@]12C
Result block: -1

Query block: Value lookup for growth inhibition; key = COC(=O)C1=C(C(=O)OC)CC(n2nnc(C(=O)OC)c2C(=O)OC)=CC1
Result block: 0

Query block: Value lookup for growth inhibition; key = COc1ccc(N=c2cc(-c3ccccc3)oc3ccccc23)cc1
Result block: -2

Query block: Value lookup for growth inhibition; key = O=[N+]([O-])c1ccc2nc(=S)[nH]n2c1
Result block: -2

Query block: Value lookup for growth inhibition; key = CC1(C)CC(=O)C(C=NC(=S)C(N)=S)=C(O)C1
Result block: -8

Query block: Value lookup for growth inhibition; key = O=C1CSC(c2ccccc2)N1c1ccc(-c2ccc(-n3c(-c4ccccc4)nc4ccccc4c3=O)cc2)cc1 (stereo not given)
Result block: -1

Query block: Value lookup for growth inhibition; key = CC1C(c2ccccc2)SC(=N)N1C (stereo not given)
Result block: -1

Query block: Value lookup for growth inhibition; key = Cc1ccc(C)c(C(=N)c2ccccc2Cc2ccccc2)c1
Result block: -3

Query block: Value lookup for growth inhibition; key = CCCCCCCCCCCCCCCCCCN(C)C(COC)COP(=O)([O-])OCC[N+](C)(C)C (stereo not given)
Result block: -64

Continuing:
Query block: Value lookup for growth inhibition; key = CC(CC/C(=N/O)c1ccccc1)(CC/C(=N\O)c1ccccc1)[N+](=O)[O-] (stereo not given)
Result block: 0

Query block: Value lookup for growth inhibition; key = N#CC1OB(O)c2ccccc21 (stereo not given)
Result block: -4
